tested on: A549; assay: NCI tumour cell line growth inhibition, 48 h
Active and inactive are the calls of the source. No stated cut-off is given here; in the data, active = GI50 up to about 1.1 µM and inactive = higher.
Hi! Could you answer with just one of these? active, inactive

Please share the test call associated with "C[N+](C)(CCNc1ccc(NCC[N+](C)(C)Cc2ccc([N+](=O)[O-])cc2)c2c1C(=O)c1c(O)ccc(O)c1C2=O)Cc1ccc([N+](=O)[O-])cc1" .
inactive

Check the results log: what was the call for "CC(=O)OCCn1c(Cc2ccc(C)cc2)nn(C(C)=O)c1=O" ?
inactive

Please let me know the test result on file for "CCC(=O)Nc1ccc(NS(=O)(=O)c2ccc(Cl)cc2)cc1" .
inactive

For this molecule, state the assay outcome: "COc1cc(/C=C2\CCc3ccccc3C2=O)cc(OC)c1OC"
inactive

What did this assay record as the result for "O=S(=O)(O)c1c(Cl)c(Cl)c(O)c2ncccc12" ?
inactive

Alright, here's another molecule for you.
Kindly provide the recorded test outcome for the following molecule: "C=CCSC1=N/C(=C\c2ccco2)C(=O)N1CC=C"
inactive
